Molecular target: T1, recombinant human GPC1 protein (R&D Systems) (human, UniProt P35052 24-530)
T1 construct: Bought recombinant protein (R&D Systems); also called human GPC-1 antigen; Glypican-1
T1 sequence: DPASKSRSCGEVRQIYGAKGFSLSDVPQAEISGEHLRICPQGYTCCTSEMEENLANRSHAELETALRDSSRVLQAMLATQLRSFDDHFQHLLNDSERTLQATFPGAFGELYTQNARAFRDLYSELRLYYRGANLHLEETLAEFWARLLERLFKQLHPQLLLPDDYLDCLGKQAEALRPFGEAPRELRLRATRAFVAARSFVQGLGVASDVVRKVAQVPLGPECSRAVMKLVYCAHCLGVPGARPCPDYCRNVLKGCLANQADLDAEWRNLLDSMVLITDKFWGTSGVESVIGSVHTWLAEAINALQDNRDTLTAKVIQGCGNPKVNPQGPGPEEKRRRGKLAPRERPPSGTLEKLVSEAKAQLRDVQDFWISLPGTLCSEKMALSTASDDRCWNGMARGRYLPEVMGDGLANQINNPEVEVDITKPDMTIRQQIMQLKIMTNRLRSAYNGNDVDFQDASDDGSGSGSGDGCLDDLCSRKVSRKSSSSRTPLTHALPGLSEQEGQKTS
Assay: SPR (Biacore 8K); antibody captured by anti-human IgG (Fc) on a CM5 chip, recombinant human GPC1 flowed over
pKd: −log10 of the molar value.
// label = Criterion met if pKd is not less than 8, otherwise Criterion not met

stdin: Record humanized anti-GPC1 monoclonal antibody clone T8 (antibody, human IgG4 S228P, kappa, V domains shown, IgG) VH: QVQLVQSGAEVKKPGASVKVSCKASGYTFTGYYMHWVRQAPGQGLEWMGEINPSTGDTTYNQKFKARVTMTRDTSTSTVYMELSSLRSEDTAVYYCAREKRDDGVFAYWGQGTLVTVSS VL: EIVMTQSPSSVSASVGDRVTITCRTSQSISSYLNWYQLRPGRAPKLLIYAASNLQSGVPSRFSGSGFGTDFTLTISSVQPEDFATYYCQQAKSYPLTFGGGTKVDIKR ; criterion: pKd no lower than 8. Met?
stdout: Criterion met

stdin: Record humanized anti-GPC1 monoclonal antibody clone T11 (antibody, human IgG4 S228P, kappa, V domains shown, IgG) VH: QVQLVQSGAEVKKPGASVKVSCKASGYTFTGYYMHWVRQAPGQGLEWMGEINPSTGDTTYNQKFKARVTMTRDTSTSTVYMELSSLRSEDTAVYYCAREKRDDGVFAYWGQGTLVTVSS VL: AIRMTQSPSSLSASVGDRVTITCRASRSISTYLHWYQQKAGKAPKLLIYSAYNLQSGVPSRFSGSGSGTDFTLTISSLQPEDFATYYCQQSYSTPYTFGQGTKVEIKR ; criterion: pKd no lower than 8. Met?
stdout: Criterion not met

stdin: Record humanized anti-GPC1 monoclonal antibody clone T32 (antibody, human IgG4 S228P, kappa, V domains shown, IgG) VH: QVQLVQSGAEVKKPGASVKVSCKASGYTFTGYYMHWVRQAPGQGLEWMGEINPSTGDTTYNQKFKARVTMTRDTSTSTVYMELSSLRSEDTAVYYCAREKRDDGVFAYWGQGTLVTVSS VL: DVVMTQSPGTLSLSPGERATLSCSASQSVSSNLAWYQQKPGQAPRLLIYGTSSRATGVPARFSGSGSGTEFTLTISSLQSEDFAAYYCQQYNSWPLTFGGGTKVEIKR ; criterion: pKd no lower than 8. Met?
stdout: Criterion not met

stdin: Record humanized anti-GPC1 monoclonal antibody clone T1 (antibody, human IgG4 S228P, kappa, V domains shown, IgG) VH: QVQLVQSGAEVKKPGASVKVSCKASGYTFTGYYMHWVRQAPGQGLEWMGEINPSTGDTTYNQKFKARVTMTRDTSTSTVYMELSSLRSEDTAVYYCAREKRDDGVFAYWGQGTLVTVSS VL: DIVMTQSPSFLSASVGDRVTITCRASQGISSYLVWYQQKPGKAPKLLIYSASVLQSGVPSRFSGRGYGTDFTLTISSLQPEDFATYYCQQSFSIPPVTFGGGTKVEIKR ; criterion: pKd no lower than 8. Met?
stdout: Criterion met

stdin: Record humanized anti-GPC1 monoclonal antibody clone T34 (antibody, human IgG4 S228P, kappa, V domains shown, IgG) VH: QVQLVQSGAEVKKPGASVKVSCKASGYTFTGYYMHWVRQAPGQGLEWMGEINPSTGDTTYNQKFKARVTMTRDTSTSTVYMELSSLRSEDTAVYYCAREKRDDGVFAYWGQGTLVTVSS VL: VIWMTQSPSSVSASVGDRVTITCRASQAINGWLAWYQQKPGKAPRILIYSASTLQTGAPSRFSGSGFGTDFTLTISSVQPEDFATYYCQQAKSYPLTFGGGTKVEIKR ; criterion: pKd no lower than 8. Met?
stdout: Criterion not met
